Provenance of the data: the supplement of paper PMC11451515

cell viability reference
test system: P12-Ichikawa; assay: cell viability relative to DMSO control; higher = less cytotoxic; conditions: RPMI 5 mM glucose + 10% dialyzed FBS; 48 h; 0.569 µM
reported_endpoint: cell viability

>>> result("COc1cc2nc(N3CCN(C(=O)c4ccco4)CC3)nc(N)c2cc1OC")
"93.5%"
>>> result("Cc1n[nH]c2ccc(-c3cncc(OC[C@@H](N)Cc4c[nH]c5ccccc45)c3)cc12")
"64%"
>>> result("CC(C)N(CCCNC(=O)Nc1ccc(C(C)(C)C)cc1)C[C@H]1O[C@@H](n2cc(Br)c3c(N)ncnc32)[C@H](O)[C@@H]1O")
"91.8%"
>>> result("CCNC(=O)c1noc(-c2cc(C(C)C)c(O)cc2O)c1-c1ccc(CN2CCOCC2)cc1")
"43.8%"
>>> result("CCc1nc(C(N)=O)c(Nc2ccc(N3CCC(N4CCN(C)CC4)CC3)c(OC)c2)nc1NC1CCOCC1")
"108%"
>>> result("CC/C(=C(\\c1ccccc1)c1ccc(OCCN(C)C)cc1)c1ccccc1")
"117%"
>>> result("Cc1n[nH]c(C)c1Cc1sc2c(c1C(=O)N1C[C@H](O)CO1)c(=O)n(C)c(=O)n2CC(C)C")
"91.6%"
>>> result("Clc1ccc(C(Cn2ccnc2)OCc2ccc(Sc3ccccc3)cc2)c(Cl)c1 (stereo not drawn)")
"105%"

* * *

test system: P12-Ichikawa; test: cell viability relative to DMSO control; higher = less cytotoxic; settings: HPLM + 10% dialyzed FBS; 48 h; 0.569 µM
reported_endpoint: cell viability (%)

>>> quantitative_result("Oc1ccc(-c2nc(-c3ccncc3)c(-c3ccc(F)cc3)[nH]2)cc1")
130
>>> quantitative_result("CCc1nc(C(N)=O)c(Nc2ccc(N3CCC(N4CCN(C)CC4)CC3)c(OC)c2)nc1NC1CCOCC1")
97.7
>>> quantitative_result("O=C(c1ccc(C(=O)N2CCC(N3CCCC3)CC2)c(Nc2ccccc2)c1)N1CCC(N2CCCC2)CC1")
106
>>> quantitative_result("Cc1cccc(Nc2nc(N[C@@H]3CCCC[C@@H]3N)ncc2C(N)=O)c1")
114
>>> quantitative_result("CCOC(=O)c1c(/C(C#N)=C\\N)c2ccc(Cl)c(Cl)c2n1C")
92.1
>>> quantitative_result("CNC(=O)c1ccccc1Sc1ccc2c(/C=C/c3ccccn3)n[nH]c2c1")
106
>>> quantitative_result("O=C(Nc1ccncc1)C(=O)c1cn(Cc2ccc(Cl)cc2)c2ccccc12")
18.4
>>> quantitative_result("CN1\\C(=C(O)/C2=C(C=C(Cl)S2)[S+]1([O-])=O)C(=O)NC3=NC=CC=C3")
113
>>> quantitative_result("O=C(O)C(=O)Nc1cccc(-c2nnn[nH]2)c1")
105

* * *

Below, each entry is listed alongside its reported AUC of viability dose-response curve.
system: P12-Ichikawa; assay: AUC of viability dose-response curve (% viability x log10 dose units); higher = less sensitive; details: RPMI 5 mM glucose + 10% FBS; 48 h
reported_endpoint: AUC of viability dose-response curve

>>> quantitative_result("O=C(O)CCCc1ccc(N(CCCl)CCCl)cc1")
456
>>> quantitative_result("CC(CCc1ccc(O)cc1)NCCc1ccc(O)c(O)c1 (centres undefined)")
450
>>> quantitative_result("CC(=O)O/N=C1/C(=C2\\C(=O)Nc3cc(Br)ccc32)Nc2ccccc21")
443
>>> quantitative_result("NCC/1=C/NC(=S)N1[C@H]2CCC3=C(F)C=C(F)C=C3C2")
463
>>> quantitative_result("CC(=O)O[C@@]12CO[C@@H]1C[C@H](O)[C@]3(C)[C@@H]2[C@H](OC(=O)C4=CC=CC=C4)[C@]5(O)C[C@H](O)/C(=C(/[C@@H](O)C3=O)C5(C)C)C")
411
>>> quantitative_result("Cc1ccnc(N[S+](=O)([O-])c2ccc(NC(=O)Nc3ccc([S+](=O)([O-])Nc4nccc(C)n4)cc3)cc2)n1")
279
>>> quantitative_result("CCN(CCO)CCCC(C)Nc1ccnc2cc(Cl)ccc12 (centres undefined)")
400
>>> quantitative_result("CC[C@@H](C)[C@H](NC(=O)[C@H](CC1CCCCC1)NC(=O)c1ccno1)C(=O)N1CCC2(CCc3ccccc32)CC1")
394
>>> quantitative_result("CCCCC(F)(F)[C@@]1(O)CC[C@H]2[C@@H](CC(=O)[C@@H]2CCCCCCC(=O)O)O1")
444
